B1: F1*; the commonest letter at each place (parent)
chain: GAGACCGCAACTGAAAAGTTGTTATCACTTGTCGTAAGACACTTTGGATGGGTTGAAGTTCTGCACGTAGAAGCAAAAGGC

# Variants of: B1
# test-method-notes: fraction ligated after 30 min (ligated reads / total reads); higher = more ligase activity
# measurement-setup: with F1*sub RNA substrate (template-directed ligation), 42 °C
# label = 1 if fraction ligated >= 0.8 else 0

- mut: "T29A G50T"
  answer-label: 0
- mut: "A41C T49C"
  answer-label: 0
- mut: "G34A"
  answer-label: 1
- mut: "T23G A36G"
  answer-label: 1
- mut: "C26A A39C"
  answer-label: 0
- mut: "T29G G47T"
  answer-label: 0
- mut: "T35A A37T"
  answer-label: 1
- mut: "T23A T45A"
  answer-label: 0
- mut: "C26G G55A"
  answer-label: 0
- mut: "A27T T45G"
  answer-label: 0
- mut: "A37T C42T"
  answer-label: 1
- mut: "T45C G47T"
  answer-label: 0
- mut: "T44A"
  answer-label: 1
- mut: "T25A G46T"
  answer-label: 0
- mut: "A24T G38T"
  answer-label: 0
- mut: "G34T C42G"
  answer-label: 1
- mut: "T25C A57G"
  answer-label: 0
